The reported numbers originate from the Human Domainome abundance scans (Beltran et al. 2025).

We begin with a simple list: items and their reported abundance fitness.
B1: Poly(rC)-binding protein 1, residues 278 to 350; numbered along this chain, Q15365 (parent)
chain: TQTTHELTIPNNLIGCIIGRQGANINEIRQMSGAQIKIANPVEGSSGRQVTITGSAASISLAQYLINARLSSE

Variants of: B1
Assay: abundance fitness (aPCA) (normalised: wild type 0, dead -1); higher = more abundant; growth selection in yeast, the domain comes from the species named
Conditions: Homo sapiens
REPORTED ENDPOINT: abundance fitness

mutations=A68S reported_endpoint="abundance fitness" result=0.048
mutations=I17V reported_endpoint="abundance fitness" result=-0.106
mutations=Q21H reported_endpoint="abundance fitness" result=-0.032
mutations=T51H reported_endpoint="abundance fitness" result=-0.287
mutations=T1K reported_endpoint="abundance fitness" result=-0.191
mutations=L65M reported_endpoint="abundance fitness" result=-0.36
mutations=G33N reported_endpoint="abundance fitness" result=-0.439
mutations=E27L reported_endpoint="abundance fitness" result=-0.225
mutations=R20S reported_endpoint="abundance fitness" result=-0.082
mutations=R29D reported_endpoint="abundance fitness" result=-0.631
mutations=N67D reported_endpoint="abundance fitness" result=0.066
